assay: activity coefficient (dimensionless); of the first substance listed, at infinite dilution; xn = mol fraction of the nth substance listed; details: 338.15 K; 101 kPa; Liquid; Chromatography; x1 = 0
Measured attribute: activity coefficient

CO [methanol] + NCCCCCCCCN | 0.317
CCCOC(C)=O [propyl ethanoate] + NCCCCCCCCN | 1.08
CCOCC [diethyl ether] + NCCCCCCCCN | 3.4
ClC(Cl)(Cl)Cl [tetrachloromethane] + NCCCCCCCCN | 1.66
c1ccccc1 [benzene] + NCCCCCCCCN | 1.67

Input line: // returns reported activity coefficient for input C=CCCC [1-pentene] + NCCCCCCCCN
Output line: 2.7

###

Kindly supply the reported activity coefficient values for the records listed here.
assay: activity coefficient (dimensionless); of the first substance listed, at infinite dilution; xn = mol fraction of the nth substance listed; conditions: 348.25 K; 101 kPa; Liquid; Chromatography; x1 = 0
Give bare numbers.

For orientation, consider the following solved cases.
C=CCCCCCCCC [1-decene] + NCCCCCCCCCCCCN | 5.05
CCCCOC(C)=O [butyl ethanoate] + NCCCCCCCCCCCCN | 1.69
CCCOC(C)=O [propyl ethanoate] + NCCCCCCCCCCCCN | 1.55
Cc1ccccc1 [toluene] + NCCCCCCCCCCCCN | 2.6
CCCCC [pentane] + NCCCCCCCCN | 1.16

Batch lookup, activity coefficient per entry.
1. CCCCC [pentane] + NCCCCCCCCCCCCN
2. CCCCCCl [1-chloropentane] + NCCCCCCCCCCCCN
3. CCc1ccccc1 [ethylbenzene] + NCCCCCCCCCCCCN
4. CCCO [propan-1-ol] + NCCCCCCCCCCCCN
5. CCCCO [butan-1-ol] + NCCCCCCCCCCCCN
6. C=CCCCCC [1-heptene] + NCCCCCCCCCCCCN

Output line:
1. 4.76
2. 3.08
3. 2.5
4. 0.931
5. 1.07
6. 4.43

Input line: // returns reported activity coefficient for input CCCCCCC [heptane] + NCCCCCCCCCCCCN
Output line: 5.21

###

test: activity coefficient (dimensionless); of the first substance listed, at infinite dilution; xn = mol fraction of the nth substance listed; conditions: 348.15 K; 101 kPa; Liquid; Chromatography; x1 = 0
Class field: derived from activity coefficient; ranges low group: < 1; middle group: ≥ 1 and < 3; high group: ≥ 3

CCO [ethanol] + NCCCCCCCCN | low group
CCc1ccccc1 [ethylbenzene] + NCCCCCCCCN | middle group

Input line: Which bin should I file C=CCCCC [hex-1-ene] + NCCCCCCCCN under?
Output line: middle group

Input line: Which bin should I file CCCCOC(C)=O [butyl ethanoate] + NCCCCCCCCN under?
Output line: middle group

Input line: Which bin should I file ClCCl [dichloromethane] + NCCCCCCCCN under?
Output line: low group

Input line: Which bin should I file CCCCCl [1-chlorobutane] + NCCCCCCCCCCN under?
Output line: middle group

Input line: Which bin should I file CCCCCC [hexane] + NCCCCCCCCCCN under?
Output line: high group

Input line: Which bin should I file CCCCCl [1-chlorobutane] + NCCCCCCCCN under?
Output line: middle group

Input line: Which bin should I file ClC(Cl)(Cl)Cl [tetrachloromethane] + NCCCCCCCCCCN under?
Output line: middle group

Input line: Which bin should I file C=CCCC [1-pentene] + NCCCCCCCCN under?
Output line: middle group

Input line: Which bin should I file CCCCCCCC [octane] + NCCCCCCCCCCN under?
Output line: high group

Input line: Which bin should I file ClCCl [dichloromethane] + NCCCCCCCCCCN under?
Output line: middle group

###

experiment: activity coefficient (dimensionless); of the first substance listed, at infinite dilution; xn = mol fraction of the nth substance listed; settings: 358.25 K; 101 kPa; Liquid; Chromatography; x1 = 0
Outcome label depends on activity coefficient relative to 2: at/above gives Y, below gives N.

CCCCC [pentane] + NCCCCCCCCCCCCN | Y
C=CCCCCCCCC [1-decene] + NCCCCCCCCCCCCN | Y
ClC(Cl)(Cl)Cl [tetrachloromethane] + NCCCCCCCCCCCCN | Y
CCCCCl [1-chlorobutane] + NCCCCCCCCCCCCN | Y
CCCO [propan-1-ol] + NCCCCCCCCCCCCN | N
C=CCCCCC [1-heptene] + NCCCCCCCCCCCCN | Y

We next turn to a different molecule, shown below.
Input line: Textbook exercise: given the entry C=CCCCC [hex-1-ene] + NCCCCCCCCCCCCN , state whether its activity coefficient is greater than or equal to 2.
Output line: Y

###

Kindly supply the reported activity coefficient values for the records listed here.
experiment: activity coefficient (dimensionless); of the first substance listed, at infinite dilution; xn = mol fraction of the nth substance listed; settings: 328.15 K; 101 kPa; Liquid; Chromatography; x1 = 0
Answers are plain numbers.

CCCCCCCC [octane] + NCCCCCCCCN | 4.73

Batch lookup, activity coefficient per entry.
1. CCCO [propan-1-ol] + NCCCCCCCCN
2. C=CCCCCC [1-heptene] + NCCCCCCCCN
3. CCCOC(C)=O [propyl ethanoate] + NCCCCCCCCN
4. CCCCCl [1-chlorobutane] + NCCCCCCCCN

Output line:
1: 0.567; 2: 3.59; 3: 1.29; 4: 1.88

Batch lookup, activity coefficient per entry.
1. CCOC(C)=O [ethyl acetate] + NCCCCCCCCN
2. CCOCC [diethyl ether] + NCCCCCCCCN
3. C=CCCCCCCCC [1-decene] + NCCCCCCCCN
4. c1ccccc1 [benzene] + NCCCCCCCCN
5. CO [methanol] + NCCCCCCCCN

Output line:
1. 1.08
2. 3.52
3. 4.24
4. 1.8
5. 0.284

Batch lookup, activity coefficient per entry.
1. ClCCl [dichloromethane] + NCCCCCCCCN
2. C=CCCCC [hex-1-ene] + NCCCCCCCCN
3. ClC(Cl)(Cl)Cl [tetrachloromethane] + NCCCCCCCCN
4. CCO [ethanol] + NCCCCCCCCN
5. CCCCCCC [heptane] + NCCCCCCCCN
6. CCCCOC(C)=O [butyl ethanoate] + NCCCCCCCCN
7. CCCCO [butan-1-ol] + NCCCCCCCCN
8. C=CCCC [1-pentene] + NCCCCCCCCN

Output line:
0.657
3.18
2.06
0.384
4.36
1.51
0.669
2.81

Batch lookup, activity coefficient per entry.
1. C=CCCCCCC [oct-1-ene] + NCCCCCCCCN
2. Cc1ccccc1 [toluene] + NCCCCCCCCN
3. CCc1ccccc1 [ethylbenzene] + NCCCCCCCCN
4. CCCCCCl [1-chloropentane] + NCCCCCCCCN
5. CCCCCCCCCC [decane] + NCCCCCCCCN

Output line:
1. 3.94
2. 2.39
3. 2.07
4. 2.71
5. 5.47

Batch lookup, activity coefficient per entry.
1. CCCCCCCl [1-chlorohexane] + NCCCCCCCCN
2. CCCCCC [hexane] + NCCCCCCCCN

Output line:
1. 3.85
2. 4.03

###

assay: activity coefficient (dimensionless); of the first substance listed, at infinite dilution; xn = mol fraction of the nth substance listed; conditions: 343.15 K; 101 kPa; Liquid; Chromatography; x1 = 0
Kindly supply the reported activity coefficient values for the records listed here.
Numbers only.

Batch lookup, activity coefficient per entry.
1. C=CCCCC [hex-1-ene] + NCCCCCCCCN
2. CCc1ccccc1 [ethylbenzene] + NCCCCCCCCN
3. c1ccccc1 [benzene] + NCCCCCCCCN
4. CCO [ethanol] + NCCCCCCCCN
5. Cc1ccccc1 [toluene] + NCCCCCCCCN

Output line:
[2.85, 1.77, 1.62, 0.42, 2.11]

Batch lookup, activity coefficient per entry.
1. CCCCCCCCCC [decane] + NCCCCCCCCN
2. ClCCl [dichloromethane] + NCCCCCCCCN
3. CCOCC [diethyl ether] + NCCCCCCCCN
4. CCCO [propan-1-ol] + NCCCCCCCCN
5. CCCCOC(C)=O [butyl ethanoate] + NCCCCCCCCN
6. CCCOC(C)=O [propyl ethanoate] + NCCCCCCCCN

Output line:
[4.58, 0.53, 3.37, 0.593, 1.14, 0.997]

Batch lookup, activity coefficient per entry.
1. CCCCCCC [heptane] + NCCCCCCCCN
2. ClC(Cl)(Cl)Cl [tetrachloromethane] + NCCCCCCCCN
3. CCCCCCl [1-chloropentane] + NCCCCCCCCN
4. CCCCCC [hexane] + NCCCCCCCCN
5. CCCCCCCC [octane] + NCCCCCCCCN
6. CCCCCCCl [1-chlorohexane] + NCCCCCCCCN
7. C=CCCCCCC [oct-1-ene] + NCCCCCCCCN
8. CCOC(C)=O [ethyl acetate] + NCCCCCCCCN

Output line:
1. 4
2. 1.51
3. 1.92
4. 3.75
5. 4.24
6. 2.38
7. 3.16
8. 0.902

Batch lookup, activity coefficient per entry.
1. CCCCO [butan-1-ol] + NCCCCCCCCN
2. C=CCCC [1-pentene] + NCCCCCCCCN
3. C=CCCCCC [1-heptene] + NCCCCCCCCN
4. C=CCCCCCCCC [1-decene] + NCCCCCCCCN
5. CCCCCl [1-chlorobutane] + NCCCCCCCCN
6. CO [methanol] + NCCCCCCCCN

Output line:
1. 0.681
2. 2.67
3. 3.03
4. 3.33
5. 1.55
6. 0.34
